Molecular target: FGFR1 (UniProt P11362)
Sequence (P11362 whole entry, looked up): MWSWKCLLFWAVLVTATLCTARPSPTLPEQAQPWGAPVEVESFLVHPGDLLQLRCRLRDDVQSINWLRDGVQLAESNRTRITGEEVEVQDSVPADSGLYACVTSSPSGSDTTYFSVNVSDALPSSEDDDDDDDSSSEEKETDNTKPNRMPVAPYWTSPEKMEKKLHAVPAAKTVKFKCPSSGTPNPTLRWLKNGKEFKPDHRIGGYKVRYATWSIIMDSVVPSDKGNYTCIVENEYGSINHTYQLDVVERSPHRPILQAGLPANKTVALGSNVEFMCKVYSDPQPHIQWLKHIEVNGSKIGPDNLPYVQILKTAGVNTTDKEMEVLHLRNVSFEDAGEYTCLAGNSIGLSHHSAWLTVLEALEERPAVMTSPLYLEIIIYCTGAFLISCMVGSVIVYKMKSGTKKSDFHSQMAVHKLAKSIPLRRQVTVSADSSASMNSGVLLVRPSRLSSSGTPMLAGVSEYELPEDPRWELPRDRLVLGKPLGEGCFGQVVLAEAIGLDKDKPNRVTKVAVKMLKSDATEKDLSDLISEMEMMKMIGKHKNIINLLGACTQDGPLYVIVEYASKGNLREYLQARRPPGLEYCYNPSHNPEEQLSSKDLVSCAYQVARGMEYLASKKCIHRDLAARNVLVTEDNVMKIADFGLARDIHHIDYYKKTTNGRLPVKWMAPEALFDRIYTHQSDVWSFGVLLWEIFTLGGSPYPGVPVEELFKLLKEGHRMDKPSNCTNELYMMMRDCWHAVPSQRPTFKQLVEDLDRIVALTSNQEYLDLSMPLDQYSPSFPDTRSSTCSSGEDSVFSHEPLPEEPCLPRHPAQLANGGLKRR
Experiment: phosphorylation enrichment, bacterial display (enrichment ratio); higher = better substrate or ligand; peptides without Tyr show the background;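 further: 11-residue human phosphosite peptides and single-mutation variants displayed on the E. coli surface, counted by deep sequencing, each peptide's frequency after selection divided by its frequency in the unselected input library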;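 further: frequency after pTyr selection over input frequency; kinase dosed for 20-30% of maximal phosphorylation in three min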
Listed here are sequences together with their documented phosphorylation enrichment.

| query.sequence | system | phosphorylation enrichment |
| --- | --- | --- |
| EKESCYILHSS [PATJ_Y783_E779K] | FGFR1 (UniProt P11362) | 0.572 |
| RGGDSYGGPPR [RBMX_Y190_R187G] | FGFR1 (UniProt P11362) | 0.454 |
| ATPKGYEPDAS [OTC_Y223] | FGFR1 (UniProt P11362) | 0.49 |

API: the following record is the query input.
INPUT: Report phosphorylation enrichment for RPAPQYPHQVP [ADAM12_Y895] tested on FGFR1 (UniProt P11362).
OUTPUT: 0.608
